Target System: CD3ε homodimer protein (human, UniProt P07766 23-126, limits assumed)
Sequence (P07766 23-126 limits assumed): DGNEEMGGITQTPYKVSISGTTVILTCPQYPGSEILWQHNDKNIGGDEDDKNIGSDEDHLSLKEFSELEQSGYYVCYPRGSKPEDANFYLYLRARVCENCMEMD
Protocol Summary: SPR, immobilized CD3ε homodimer;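 further: biacore T200 surface plasmon resonance at 25 °C, antibody variants flowed as analytes over amine-coupled CD3ε homodimer on a CM4 chip, variant binding amount divided by that of GLS3000 antibody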
Test Readout: ratio of amounts bound (vs GLS3000)
Enter the number alone.

INPUT: Assign ratio of amounts bound (vs GLS3000) to the following record: GLS3000 F55D (antibody, name in Kabat numbering, V domains shown, one-arm format as m2) VH: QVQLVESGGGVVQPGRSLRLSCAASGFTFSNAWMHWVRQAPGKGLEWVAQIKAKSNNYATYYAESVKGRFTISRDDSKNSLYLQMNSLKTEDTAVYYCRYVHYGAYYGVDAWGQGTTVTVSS VL: DIVMTQSPLSLPVTPGEPASISCRSSQSLVHSNRNTYLHWYQQKPGQAPRLLIYKVSNRDSGVPDRFSGSGSGTDFTLKISRVEAEDVGVYYCGQGTQVPYTFGQGTKLEIK
OUTPUT: 0.65

INPUT: Assign ratio of amounts bound (vs GLS3000) to the following record: GLS3000 V94G (antibody, name in Kabat numbering, V domains shown, one-arm format as m2) VH: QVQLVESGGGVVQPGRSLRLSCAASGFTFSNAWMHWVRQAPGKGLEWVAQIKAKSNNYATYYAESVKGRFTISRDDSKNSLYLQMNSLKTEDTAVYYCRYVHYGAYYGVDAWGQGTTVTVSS VL: DIVMTQSPLSLPVTPGEPASISCRSSQSLVHSNRNTYLHWYQQKPGQAPRLLIYKVSNRFSGVPDRFSGSGSGTDFTLKISRVEAEDVGVYYCGQGTQGPYTFGQGTKLEIK
OUTPUT: 0.48

INPUT: Assign ratio of amounts bound (vs GLS3000) to the following record: GLS3000 H27dN (antibody, name in Kabat numbering, V domains shown, one-arm format as m2) VH: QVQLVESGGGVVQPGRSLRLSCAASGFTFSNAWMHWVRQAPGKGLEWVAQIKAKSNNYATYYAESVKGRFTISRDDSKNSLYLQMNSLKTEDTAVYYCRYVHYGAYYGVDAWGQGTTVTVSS VL: DIVMTQSPLSLPVTPGEPASISCRSSQSLVNSNRNTYLHWYQQKPGQAPRLLIYKVSNRFSGVPDRFSGSGSGTDFTLKISRVEAEDVGVYYCGQGTQVPYTFGQGTKLEIK
OUTPUT: 0.3
